Data origin, for the record: the supplement of paper PMC10567573

B1: FAM164C (parent)
chain: YPHCTGISQQDPESDSQGQGNGLF

# Variants of: B1
# Assay Procedure: protein stability index of a GFP-peptide fusion (GPS, HEK-293T) (PSI 1-6); higher = more stable;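 also: lentivirally expressed fusions sorted by FACS into six bins by GFP to DsRed ratio, PSI derived from sequencing read proportions per bin multiplied by bin number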
# Condition Context: c terminus: a fixed tail appended
Give measured protein stability index for each item. Keep answers brief.
Numbers only.

The cases that follow already have their protein stability index on record.
>>> numeric_value("YPHCTGISQQDCESDSQGQGNGLF")
3.77
>>> numeric_value("YPHCTGISQQDPESYSQGQGNGLF")
3.23
>>> numeric_value("YPHCTGISRQDPESDSQGQGNGLF")
3.68
>>> numeric_value("YPHCTGISQQDPESDSQGQGNGLA")
3.89
>>> numeric_value("YPHCTGISQQDPESDRQGQGNGLF")
3.31
>>> numeric_value("YPHCTGISQQDPESDSQRQGNGLF")
3.83
>>> numeric_value("YPHCTGIPQQDPESDSQGQGNGLF")
3.91
>>> numeric_value("YPHCTGISLQDPESDSQGQGNGLF")
2.98
>>> numeric_value("YPHCTGISQQDPESDSQGQGNGLR")
5.01
>>> numeric_value("YPHCTGISQQDPESDSQGIGNGLF")
3.26

// for each variant in input: emit protein stability index
1. YPHCTGISQLDPESDSQGQGNGLF
2. YPHCTGISQQDPSSDSQGQGNGLF
3. YPHNTGISQQDPESDSQGQGNGLF
4. YPHCTGISQQDPDSDSQGQGNGLF

1. 2.96
2. 3.08
3. 4.25
4. 3.87
